- Test system: HARA
- Protocol Text: relative viability (nuclei count vs DMSO), 5 days (fraction); higher = more cells survive
- Applied Conditions: first compound 0.253 µM
Measurement Label: relative viability
Enter a number only.

Consider the worked cases shown below.
>>> numeric_result("O=c1[nH]c2ccccc2n1C1CCN(CCCC(c2ccc(F)cc2)c2ccc(F)cc2)CC1 [Pimozide] + CC1(C)CCC(c2ccc(Cl)cc2)=C(CN2CCN(c3ccc(C(=O)NS(=O)(=O)c4ccc(N[C@H](CCN5CCOCC5)CSc5ccccc5)c(S(=O)(=O)C(F)(F)F)c4)cc3)CC2)C1 [Navitoclax] (partner 0.5 µM)")
1.18
>>> numeric_result("Cc1cnc(-c2cnc(NCCNc3ccc(C#N)cn3)nc2-c2ccc(Cl)cc2Cl)[nH]1 + COc1cc2c(Oc3ccc(NC(=O)C4(C(=O)Nc5ccc(F)cc5)CC4)cc3F)ccnc2cc1OCCCN1CCOCC1 [Foretinib] (partner 0.25 µM)")
0.773
>>> numeric_result("Cc1cnc(-c2cnc(NCCNc3ccc(C#N)cn3)nc2-c2ccc(Cl)cc2Cl)[nH]1 + NC(=O)Nc1cc(-c2cccc(F)c2)sc1C(=O)N[C@H]1CCCNC1 [AZD7762] (partner 0.2 µM)")
0.191

Moving on to another molecule below.
# input May I ask what relative viability has been recorded for Cc1cnc(-c2cnc(NCCNc3ccc(C#N)cn3)nc2-c2ccc(Cl)cc2Cl)[nH]1 + Cc1nc(NC(=O)N2CCC[C@H]2C(N)=O)sc1-c1ccnc(C(C)(C)C(F)(F)F)c1 [Alpelisib] (partner 2 µM) ?
# output 0.673

----------
- Test system: NCI-H520
- Protocol Text: relative viability (nuclei count vs DMSO), 5 days (fraction); higher = more cells survive
- Applied Conditions: first compound 0.002 µM
# relative viability per entry
No unit in the answer, please; the number alone is enough.

>>> numeric_result("CC(=O)O[C@@]12CO[C@@H]1C[C@H](O)[C@@]1(C)C(=O)[C@H](O)C3=C(C)[C@@H](OC(=O)[C@H](O)[C@@H](NC(=O)OC(C)(C)C)c4ccccc4)C[C@@](O)([C@@H](OC(=O)c4ccccc4)[C@H]21)C3(C)C [Docetaxel] + C[C@@H](Oc1cc(-c2cnn(C3CCNCC3)c2)cnc1N)c1c(Cl)ccc(F)c1Cl [Crizotinib] (partner 1 µM)")
0.196
>>> numeric_result("CC(=O)O[C@@]12CO[C@@H]1C[C@H](O)[C@@]1(C)C(=O)[C@H](O)C3=C(C)[C@@H](OC(=O)[C@H](O)[C@@H](NC(=O)OC(C)(C)C)c4ccccc4)C[C@@](O)([C@@H](OC(=O)c4ccccc4)[C@H]21)C3(C)C [Docetaxel] + C[C@]1(O)C[C@@H](c2nc(-c3ccc4ccc(-c5ccccc5)nc4c3)c3c(N)nccn32)C1 [Linsitinib] (partner 1 µM)")
0.277
>>> numeric_result("CC(=O)O[C@@]12CO[C@@H]1C[C@H](O)[C@@]1(C)C(=O)[C@H](O)C3=C(C)[C@@H](OC(=O)[C@H](O)[C@@H](NC(=O)OC(C)(C)C)c4ccccc4)C[C@@](O)([C@@H](OC(=O)c4ccccc4)[C@H]21)C3(C)C [Docetaxel] + CCNC(=O)c1noc(-c2cc(C(C)C)c(O)cc2O)c1-c1ccc(CN2CCOCC2)cc1 [Luminespib] (partner 0.01 µM)")
0.233
>>> numeric_result("CC(=O)O[C@@]12CO[C@@H]1C[C@H](O)[C@@]1(C)C(=O)[C@H](O)C3=C(C)[C@@H](OC(=O)[C@H](O)[C@@H](NC(=O)OC(C)(C)C)c4ccccc4)C[C@@](O)([C@@H](OC(=O)c4ccccc4)[C@H]21)C3(C)C [Docetaxel] + Cc1nc(Nc2ncc(C(=O)Nc3c(C)cccc3Cl)s2)cc(N2CCN(CCO)CC2)n1 [Dasatinib] (partner 0.075 µM)")
0.164
>>> numeric_result("CC(=O)O[C@@]12CO[C@@H]1C[C@H](O)[C@@]1(C)C(=O)[C@H](O)C3=C(C)[C@@H](OC(=O)[C@H](O)[C@@H](NC(=O)OC(C)(C)C)c4ccccc4)C[C@@](O)([C@@H](OC(=O)c4ccccc4)[C@H]21)C3(C)C [Docetaxel] + O=C(c1cc(Cc2n[nH]c(=O)c3ccccc23)ccc1F)N1CCN(C(=O)C2CC2)CC1 [Olaparib] (partner 8 µM)")
0.22

Let's switch to this compound now.
# input Tell me the measured relative viability of CC(=O)O[C@@]12CO[C@@H]1C[C@H](O)[C@@]1(C)C(=O)[C@H](O)C3=C(C)[C@@H](OC(=O)[C@H](O)[C@@H](NC(=O)OC(C)(C)C)c4ccccc4)C[C@@](O)([C@@H](OC(=O)c4ccccc4)[C@H]21)C3(C)C [Docetaxel] + COc1cc2c(Oc3ccc(NC(=O)C4(C(=O)Nc5ccc(F)cc5)CC4)cc3F)ccnc2cc1OCCCN1CCOCC1 [Foretinib] (partner 0.25 µM) , please.
# output 0.341
